biological target: KRAS G13C (Homo sapiens, UniProt P01116+P62937, G13C); assay: Ras-Raf disruption / FRET / MOA assay (BRAF RBD); type: biochemical; settings: Ras-Raf disruption, with Cyclophilin A; read-out: KRAS G13C FRET data IC50
Sequence (P01116 1-169 isoform P01116-2 G13C limits assumed): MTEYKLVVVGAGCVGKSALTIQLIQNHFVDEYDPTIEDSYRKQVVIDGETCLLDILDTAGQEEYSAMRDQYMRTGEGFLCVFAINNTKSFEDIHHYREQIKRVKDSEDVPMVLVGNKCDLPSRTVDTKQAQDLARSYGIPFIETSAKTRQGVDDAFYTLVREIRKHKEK
Sequence (P62937 whole entry): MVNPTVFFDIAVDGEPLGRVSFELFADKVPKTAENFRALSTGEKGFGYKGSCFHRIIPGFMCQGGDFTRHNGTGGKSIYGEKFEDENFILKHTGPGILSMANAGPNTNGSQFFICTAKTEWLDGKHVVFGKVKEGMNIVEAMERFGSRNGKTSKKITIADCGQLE
pIC50: −log10 of the molar value.
observable: pIC50

Input: Field request: pIC50 | item: CCn1c(-c2cccnc2[C@H](C)OC)c2c3cc(ccc31)-c1cc(O)cc(c1)C[C@H](NC(=O)[C@H](C(C)C)N(C)C(=O)[C@H]1CCN(C(=O)C3(C)CO3)C1)C(=O)N1CCC[C@H](N1)C(=O)OCC(C)(C)C2 (some centres unmarked) [Example 332]
Output: 7.00 to 8.00

Input: Field request: pIC50 | item: CCn1c(-c2cccnc2[C@H](C)OC)c2c3cc(ccc31)-c1cc(O)cc(c1)C[C@H](NC(=O)[C@H](C(C)C)N(C)C(=O)[C@H]1CCN(C(=O)[C@H]3CN3)C1)C(=O)N1CCC[C@H](N1)C(=O)OCC(C)(C)C2 (single isomer, unassigned) [Example 43A]
Output: 7.00 to 8.00

Input: Field request: pIC50 | item: CCn1c(-c2cnccc2COC)c2c3cc(ccc31)-c1cccc(c1)C[C@H](NC(=O)[C@H](C(C)C)N(C)C(=O)CCN=C=NCc1c(OC)cccc1OC)C(=O)N1CCC[C@H](N1)C(=O)OCC(C)(C)C2 [62 A and B]
Output: 5.00 to 6.00

Input: Field request: pIC50 | item: CCn1c(-c2cccnc2[C@H](C)OC)c2c3cc(ccc31)-c1cc(O)cc(c1)C[C@H](NC(=O)[C@H](C(C)C)N(C)C(=O)C1CCN(C(=O)[C@@H]3CN3)CC1)C(=O)N1CCC[C@H](N1)C(=O)OCC(C)(C)C2 [Example 89]
Output: > 8.00

Input: Field request: pIC50 | item: CCn1c(-c2cccnc2[C@H](C)OC)c2c3cc(ccc31)-c1cc(O)cc(c1)C[C@H](NC(=O)[C@H](C(C)C)N(C)C(=O)N1CCN(C(=O)[C@H]3CN3)CC1)C(=O)N1CCC[C@H](N1)C(=O)OCC(C)(C)C2 [Example 177]
Output: 7.00 to 8.00

###

biological target: NRAS G12C (Homo sapiens, UniProt P01111+P62937, G12C); assay: Ras-Raf disruption / FRET / MOA assay (BRAF RBD); assay type: biochemical; settings: NRAS G12C FRET data IC50, NRAS G12C
Sequence (P01111 whole entry G12C): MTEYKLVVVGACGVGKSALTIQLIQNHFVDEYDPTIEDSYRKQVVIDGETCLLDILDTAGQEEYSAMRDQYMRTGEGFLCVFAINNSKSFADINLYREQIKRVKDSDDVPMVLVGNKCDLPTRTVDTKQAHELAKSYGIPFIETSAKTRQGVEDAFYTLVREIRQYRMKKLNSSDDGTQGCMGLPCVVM
Sequence (P62937 whole entry): as the sequence (P62937 whole entry) above
pIC50: −log10 of the molar value.
observable: pIC50

Input: GET /values?readout=pIC50&system=NRAS G12C (Homo sapiens, UniProt P01111+P62937, G12C)&item= CCn1c(-c2cc(N3CCN(C)CC3)cnc2[C@H](C)OC)c2c3cc(ccc31)-c1cc(O)cc(c1)C[C@H](NC(=O)[C@H](C1CCCC1)N(C)C(=O)CN(C)C(=O)[C@@H]1N[C@@H]1C1CC1)C(=O)N1CCC[C@H](N1)C(=O)OCC(C)(C)C2 [Example 325]
Output: > 8.00

Input: GET /values?readout=pIC50&system=NRAS G12C (Homo sapiens, UniProt P01111+P62937, G12C)&item= CCn1c(-c2cccnc2[C@H](C)OC)c2c3cc(ccc31)-c1cc(O)cc(c1)C[C@H](NC(=O)[C@H](C(C)C)N(C)C(=O)CN(C)C(=O)[C@H]1CN1)C(=O)N1CCC[C@H](N1)C(=O)OCC(C)(C)C2 (single isomer, unassigned) [Example 42A]
Output: > 8.00

Input: GET /values?readout=pIC50&system=NRAS G12C (Homo sapiens, UniProt P01111+P62937, G12C)&item= CCn1c(-c2cccnc2[C@H](C)OC)c2c3cc(ccc31)-c1cc(O)cc(c1)C[C@H](NC(=O)[C@H](C(C)C)N(C)C(=O)CN(C)C(=O)[C@@H]1CN1CCCC#N)C(=O)N1CCC[C@H](N1)C(=O)OCC(C)(C)C2 (some centres unmarked) [Example 274]
Output: > 8.00

Input: GET /values?readout=pIC50&system=NRAS G12C (Homo sapiens, UniProt P01111+P62937, G12C)&item= CCn1c(-c2cccnc2[C@H](C)OC)c2c3cc(ccc31)-c1cc(O)cc(c1)C[C@H](NC(=O)[C@H](C1CCCC1)N(C)C(=O)CN(C)C(=O)[C@H]1N[C@H]1C1(C#N)CC1)C(=O)N1CCC[C@H](N1)C(=O)OCC(C)(C)C2 [Example 316]
Output: 7.00 to 8.00

Input: GET /values?readout=pIC50&system=NRAS G12C (Homo sapiens, UniProt P01111+P62937, G12C)&item= CCn1c(-c2cccnc2[C@H](C)OC)c2c3cc(ccc31)-c1cc(O)cc(c1)C[C@H](NC(=O)[C@H](C(C)C)N(C)C(=O)C13CCC(CC1)N3C(=O)[C@H]1CN1)C(=O)N1CCC[C@H](N1)C(=O)OCC(C)(C)C2 [Example 202]
Output: 7.00 to 8.00

Input: GET /values?readout=pIC50&system=NRAS G12C (Homo sapiens, UniProt P01111+P62937, G12C)&item= CCn1c(-c2cccnc2[C@H](C)OC)c2c3cc(ccc31)-c1csc(n1)C[C@H](NC(=O)[C@H](C1CCCC1)N(C)C(=O)CN(C)C(=O)[C@@H]1N[C@@H]1C1CC1)C(=O)N1CCC[C@H](N1)C(=O)OCC(C)(C)C2 [Example 210]
Output: 6.00 to 7.00

Input: GET /values?readout=pIC50&system=NRAS G12C (Homo sapiens, UniProt P01111+P62937, G12C)&item= CCn1c(-c2cccnc2[C@H](C)OC)c2c3cc(ccc31)-c1cc(O)cc(c1)C[C@H](NC(=O)[C@H](C(C)C)N(C)C(=O)CN(C)C(=O)[C@@H]1N[C@@H]1C(C)C)C(=O)N1CCC[C@H](N1)C(=O)OCC(C)(C)C2 [Example 264]
Output: > 8.00

Input: GET /values?readout=pIC50&system=NRAS G12C (Homo sapiens, UniProt P01111+P62937, G12C)&item= CCn1c(-c2cccnc2[C@H](C)OC)c2c3cc(ccc31)-c1cc(O)cc(c1)C[C@H](NC(=O)[C@H](C(C)C)N(C)C(=O)[C@H]1CCCN1C(=O)[C@H]1CN1)C(=O)N1CCC[C@H](N1)C(=O)OCC(C)(C)C2 [Example 152]
Output: 7.00 to 8.00

Taken from patent US20230233569A1.
